Settings: in water, 308.15 K
Endpoint name: solubility (mole fraction)

>  <Compound string>
C[C@H]1[C@H](C)CC[C@]2(C(=O)O)CC[C@]3(C)C(=CC[C@@H]4[C@@]5(C)CC[C@H](O)C(C)(C)[C@@H]5CC[C@]43C)[C@H]12

>  <Endpoint name>
solubility (mole fraction)

>  <Result>
2.57e-07

$$$$

====

Conditions: in methanol, 288.15 K

>  <Compound string>
C[C@H]1[C@H](C)CC[C@]2(C(=O)O)CC[C@]3(C)C(=CC[C@@H]4[C@@]5(C)CC[C@H](O)C(C)(C)[C@@H]5CC[C@]43C)[C@H]12

>  <solubility (mole fraction)>
0.000579

$$$$

====

Settings: in acetone, 313.15 K

>  <Compound string>
C[C@H]1[C@H](C)CC[C@]2(C(=O)O)CC[C@]3(C)C(=CC[C@@H]4[C@@]5(C)CC[C@H](O)C(C)(C)[C@@H]5CC[C@]43C)[C@H]12

>  <solubility (mole fraction)>
0.00139

$$$$

====

Settings: in water, 318.15 K
Endpoint name: solubility (mole fraction)

>  <Compound string>
C[C@H]1[C@H](C)CC[C@]2(C(=O)O)CC[C@]3(C)C(=CC[C@@H]4[C@@]5(C)CC[C@H](O)C(C)(C)[C@@H]5CC[C@]43C)[C@H]12

>  <Endpoint name>
solubility (mole fraction)

>  <Numeric value>
3.18e-07

$$$$

====

Conditions: in acetone, 323.15 K

>  <Compound string>
C[C@H]1[C@H](C)CC[C@]2(C(=O)O)CC[C@]3(C)C(=CC[C@@H]4[C@@]5(C)CC[C@H](O)C(C)(C)[C@@H]5CC[C@]43C)[C@H]12

>  <solubility (mole fraction)>
0.00187

$$$$

====

Conditions: in acetone, 293.15 K
Endpoint name: solubility (mole fraction)

>  <Compound string>
C[C@H]1[C@H](C)CC[C@]2(C(=O)O)CC[C@]3(C)C(=CC[C@@H]4[C@@]5(C)CC[C@H](O)C(C)(C)[C@@H]5CC[C@]43C)[C@H]12

>  <Numeric value>
0.000707

$$$$

====

Conditions: in acetone, 298.15 K
Endpoint name: solubility (mole fraction)

>  <Compound string>
C[C@H]1[C@H](C)CC[C@]2(C(=O)O)CC[C@]3(C)C(=CC[C@@H]4[C@@]5(C)CC[C@H](O)C(C)(C)[C@@H]5CC[C@]43C)[C@H]12

>  <Numeric value>
0.000836

$$$$

====

Conditions: in acetone, 278.15 K
Endpoint name: solubility (mole fraction)

>  <Compound string>
C[C@H]1[C@H](C)CC[C@]2(C(=O)O)CC[C@]3(C)C(=CC[C@@H]4[C@@]5(C)CC[C@H](O)C(C)(C)[C@@H]5CC[C@]43C)[C@H]12

>  <Numeric value>
0.000384

$$$$

====

Conditions: in water, 298.15 K

>  <Compound string>
C[C@H]1[C@H](C)CC[C@]2(C(=O)O)CC[C@]3(C)C(=CC[C@@H]4[C@@]5(C)CC[C@H](O)C(C)(C)[C@@H]5CC[C@]43C)[C@H]12

>  <solubility (mole fraction)>
2.02e-07

$$$$

====

Conditions: in methanol, 298.15 K
Endpoint name: solubility (mole fraction)

>  <Compound string>
C[C@H]1[C@H](C)CC[C@]2(C(=O)O)CC[C@]3(C)C(=CC[C@@H]4[C@@]5(C)CC[C@H](O)C(C)(C)[C@@H]5CC[C@]43C)[C@H]12

>  <Numeric value>
0.000746

$$$$

====

Conditions: in acetone, 303.15 K

>  <Compound string>
C[C@H]1[C@H](C)CC[C@]2(C(=O)O)CC[C@]3(C)C(=CC[C@@H]4[C@@]5(C)CC[C@H](O)C(C)(C)[C@@H]5CC[C@]43C)[C@H]12

>  <solubility (mole fraction)>
0.001

$$$$

====

Details: in water, 323.15 K
Endpoint name: solubility (mole fraction)

>  <Compound string>
C[C@H]1[C@H](C)CC[C@]2(C(=O)O)CC[C@]3(C)C(=CC[C@@H]4[C@@]5(C)CC[C@H](O)C(C)(C)[C@@H]5CC[C@]43C)[C@H]12

>  <Endpoint name>
solubility (mole fraction)

>  <Result>
3.54e-07

$$$$

====

Settings: in methanol, 318.15 K

>  <Compound string>
C[C@H]1[C@H](C)CC[C@]2(C(=O)O)CC[C@]3(C)C(=CC[C@@H]4[C@@]5(C)CC[C@H](O)C(C)(C)[C@@H]5CC[C@]43C)[C@H]12

>  <solubility (mole fraction)>
0.00121

$$$$

====

Conditions: in methanol, 293.15 K

>  <Compound string>
C[C@H]1[C@H](C)CC[C@]2(C(=O)O)CC[C@]3(C)C(=CC[C@@H]4[C@@]5(C)CC[C@H](O)C(C)(C)[C@@H]5CC[C@]43C)[C@H]12

>  <solubility (mole fraction)>
0.000662

$$$$

====

Conditions: in acetone, 288.15 K

>  <Compound string>
C[C@H]1[C@H](C)CC[C@]2(C(=O)O)CC[C@]3(C)C(=CC[C@@H]4[C@@]5(C)CC[C@H](O)C(C)(C)[C@@H]5CC[C@]43C)[C@H]12

>  <solubility (mole fraction)>
0.00058

$$$$

====

Details: in methanol, 278.15 K

>  <Compound string>
C[C@H]1[C@H](C)CC[C@]2(C(=O)O)CC[C@]3(C)C(=CC[C@@H]4[C@@]5(C)CC[C@H](O)C(C)(C)[C@@H]5CC[C@]43C)[C@H]12

>  <solubility (mole fraction)>
0.000447

$$$$

====

Details: in water, 278.15 K
Endpoint name: solubility (mole fraction)

>  <Compound string>
C[C@H]1[C@H](C)CC[C@]2(C(=O)O)CC[C@]3(C)C(=CC[C@@H]4[C@@]5(C)CC[C@H](O)C(C)(C)[C@@H]5CC[C@]43C)[C@H]12

>  <Numeric value>
1.16e-07

$$$$

====

Details: in methanol, 303.15 K
Endpoint name: solubility (mole fraction)

>  <Compound string>
C[C@H]1[C@H](C)CC[C@]2(C(=O)O)CC[C@]3(C)C(=CC[C@@H]4[C@@]5(C)CC[C@H](O)C(C)(C)[C@@H]5CC[C@]43C)[C@H]12

>  <Numeric value>
0.000842

$$$$

====

Details: in acetone, 318.15 K

>  <Compound string>
C[C@H]1[C@H](C)CC[C@]2(C(=O)O)CC[C@]3(C)C(=CC[C@@H]4[C@@]5(C)CC[C@H](O)C(C)(C)[C@@H]5CC[C@]43C)[C@H]12

>  <solubility (mole fraction)>
0.00162

$$$$

====

Conditions: in methanol, 308.15 K

>  <Compound string>
C[C@H]1[C@H](C)CC[C@]2(C(=O)O)CC[C@]3(C)C(=CC[C@@H]4[C@@]5(C)CC[C@H](O)C(C)(C)[C@@H]5CC[C@]43C)[C@H]12

>  <solubility (mole fraction)>
0.000955

$$$$

====

Conditions: in water, 293.15 K

>  <Compound string>
C[C@H]1[C@H](C)CC[C@]2(C(=O)O)CC[C@]3(C)C(=CC[C@@H]4[C@@]5(C)CC[C@H](O)C(C)(C)[C@@H]5CC[C@]43C)[C@H]12

>  <solubility (mole fraction)>
1.76e-07

$$$$

====

Settings: in methanol, 283.15 K
Endpoint name: solubility (mole fraction)

>  <Compound string>
C[C@H]1[C@H](C)CC[C@]2(C(=O)O)CC[C@]3(C)C(=CC[C@@H]4[C@@]5(C)CC[C@H](O)C(C)(C)[C@@H]5CC[C@]43C)[C@H]12

>  <Endpoint name>
solubility (mole fraction)

>  <Numeric value>
0.000505

$$$$

====

Conditions: in water, 283.15 K
Endpoint name: solubility (mole fraction)

>  <Compound string>
C[C@H]1[C@H](C)CC[C@]2(C(=O)O)CC[C@]3(C)C(=CC[C@@H]4[C@@]5(C)CC[C@H](O)C(C)(C)[C@@H]5CC[C@]43C)[C@H]12

>  <Numeric value>
1.34e-07

$$$$

====

Details: in water, 288.15 K

>  <Compound string>
C[C@H]1[C@H](C)CC[C@]2(C(=O)O)CC[C@]3(C)C(=CC[C@@H]4[C@@]5(C)CC[C@H](O)C(C)(C)[C@@H]5CC[C@]43C)[C@H]12

>  <solubility (mole fraction)>
1.55e-07

$$$$

The reported numbers originate from BigSolDB 2.1.
